FYI, the data here is from patent US20240158385A1.

Biological target: human KCNK13 (Homo sapiens)
Construct: expressed in transfected cells
Sequence (Q9HB14 whole entry): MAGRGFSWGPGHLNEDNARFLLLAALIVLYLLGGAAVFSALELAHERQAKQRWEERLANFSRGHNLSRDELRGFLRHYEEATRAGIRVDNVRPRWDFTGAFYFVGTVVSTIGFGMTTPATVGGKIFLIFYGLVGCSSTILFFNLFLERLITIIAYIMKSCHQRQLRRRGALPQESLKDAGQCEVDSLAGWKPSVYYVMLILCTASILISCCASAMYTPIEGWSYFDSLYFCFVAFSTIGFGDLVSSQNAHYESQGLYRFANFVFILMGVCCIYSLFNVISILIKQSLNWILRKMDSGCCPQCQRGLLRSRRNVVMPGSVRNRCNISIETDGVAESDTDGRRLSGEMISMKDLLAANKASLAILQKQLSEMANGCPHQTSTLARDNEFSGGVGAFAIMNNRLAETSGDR
Assay: KCNK13 antagonist activity, thallium (Tl+) flux FLIPR assay
Assay type: cell-based
Conditions: HEK 293 cells stably expressing human KCNK13; Tl+ sensitive dye, FLIPR; compounds 15 minutes prior to thallium sulfate; 10 point half log curves from 10 PM; read-out: hKCNK13 IC50
pIC50: −log10 of the molar value.
This listing pairs compounds with measured pIC50.

Cc1nonc1-c1nc2cccc(F)c2n1Cc1cccnc1 (single isomer, unassigned) [Example 122] : > 7.30
Cc1ccc(Cn2c(-c3nonc3N)nc3c(F)cccc32)nn1 (single isomer, unassigned) [Example 169] : > 6.70
Cc1cccc(Cn2c(-c3nonc3C)nc3ccccc32)n1 [Example 78] : > 6.30
Nc1nonc1-c1nc2ccccc2n1Cc1ccncn1 [Example 106] : > 6.70
Nc1nonc1-c1nc2cccc(F)c2n1Cc1ccc(C(F)F)nn1 (single isomer, unassigned) [Example 172] : > 6.70
Nc1nonc1-c1nc2cc(Br)ccc2n1Cc1cccnc1 [Example 33] : > 7.30
Cc1nonc1-c1nc2c(Cl)cccc2n1Cc1ccc(C#N)nc1 (single isomer, unassigned) [Example 61] : > 6.70
Cc1nonc1-c1nc2ccccc2n1Cc1ccncc1 [Example 98] : > 7.00
Nc1nonc1-c1nc2c(F)cccc2n1Cc1cccnc1 (single isomer, unassigned) [Example 87] : > 7.30
COc1ccc(Cn2c(-c3nonc3N)nc3c(F)cccc32)nn1 (single isomer, unassigned) [Example 153] : > 6.70

Query: Provide measured pIC50 value, entry: Fc1cccc2nc(-c3cnns3)n(Cc3cccnc3)c12 [Example 68]
Reply: > 6.70

Query: Answer with the recorded pIC50 of Cc1nonc1-c1nc2ccc(F)c(F)c2n1Cc1cncnc1 [Example 7] only.
Reply: > 7.00

Query: Output measured pIC50 for this item: Cc1conc1-c1nc2cccc(F)c2n1Cc1cccnn1 [Example 182]
Reply: > 6.70

Query: Please look at this compound and report its pIC50: Cc1nonc1-c1nc2ccccc2n1Cc1ccc(S(C)(=O)=O)nc1 [Example 58]
Reply: > 7.00

Query: Give recorded pIC50. Cc1nonc1-c1nc2cccc(F)c2n1Cc1ccc(C#N)nn1 [Example 46]
Reply: > 7.00

Query: In one line, give reported pIC50 of the entry [2H]C([2H])(c1cccnc1)n1c(-c2nonc2C)nc2cccc(F)c21 (single isomer, unassigned) [Example 31] .
Reply: > 7.30

Query: Report pIC50, nothing else, for this compound: CCS(=O)(=O)c1ccc(Cn2c(-c3nonc3C)nc3ccccc32)cn1 [Example 180]
Reply: > 6.30

Query: Give reported pIC50 value for COc1ccc(Cn2c(-c3nonc3C)nc3cccnc32)cn1 [Example 16]
Reply: > 6.70

Query: Report measured pIC50; entry is COc1cc(Cn2c(-c3nonc3N)nc3c(F)cccc32)ccn1 (single isomer, unassigned) [Example 184]
Reply: > 7.00

Query: Read the entry Cc1nonc1-c1nc2ccc(F)c(F)c2n1Cc1cccnc1 [Example 56] and write its reported pIC50.
Reply: > 7.00

Query: Give the reported value of pIC50 for this record: N#Cc1ccc(Cn2c(-c3nonc3N)nc3c(F)cccc32)cn1 [Example 8]
Reply: > 7.00

Query: Hello, please tell me recorded pIC50 for this one: CNc1nsnc1-c1nc2c(F)cccc2n1Cc1cccnn1 [Example 144]
Reply: > 6.00
